# MIC per record follows
- System: N. gonorrhoeae WHO F
- method: Liquid broth MIC, N. gonorrhoeae WHO F
- Type: cell-based
- condition: Neisseria gonorrhoeae; N. gonorrhoeae WHO F, liquid broth; read-out: Minimum Inhibitory Concentration, N. gonorrhoeae WHO F

NS(=O)(=O)c1ccc(C(NC(=O)N2CCN(CCF)C(=O)C2=O)C(=O)N[C@H]2Cc3cccc(C(=O)O)c3OB2O)c(F)c1 (stereo partly drawn) [Example 204] :: 0.25 to 0.5 mg/L

Q. Look up MIC with N. gonorrhoeae WHO F for this molecule: CS(=O)(=O)N1CCN(C(=O)NC(C(=O)N[C@H]2Cc3cccc(C(=O)O)c3OB2O)c2ccc(O)c(O)c2Cl)C1=O (stereo partly drawn) [Example 58]
A. 1 to 2 mg/L

Q. Look up MIC with N. gonorrhoeae WHO F for this molecule: NC(=O)c1ccc(C(NC(=O)N2CCN(CCF)C(=O)C2=O)C(=O)N[C@H]2Cc3cccc(C(=O)O)c3OB2O)cc1 (stereo partly drawn) [Example 187]
A. < 0.125 mg/L
